Item-by-item account of pKd
Tested System: T1, EsCas13d, nuclease-dead (Eubacterium siraeum, UniProt B0MS50, R295A;H300A;R849A;H854A)
T1 sequence: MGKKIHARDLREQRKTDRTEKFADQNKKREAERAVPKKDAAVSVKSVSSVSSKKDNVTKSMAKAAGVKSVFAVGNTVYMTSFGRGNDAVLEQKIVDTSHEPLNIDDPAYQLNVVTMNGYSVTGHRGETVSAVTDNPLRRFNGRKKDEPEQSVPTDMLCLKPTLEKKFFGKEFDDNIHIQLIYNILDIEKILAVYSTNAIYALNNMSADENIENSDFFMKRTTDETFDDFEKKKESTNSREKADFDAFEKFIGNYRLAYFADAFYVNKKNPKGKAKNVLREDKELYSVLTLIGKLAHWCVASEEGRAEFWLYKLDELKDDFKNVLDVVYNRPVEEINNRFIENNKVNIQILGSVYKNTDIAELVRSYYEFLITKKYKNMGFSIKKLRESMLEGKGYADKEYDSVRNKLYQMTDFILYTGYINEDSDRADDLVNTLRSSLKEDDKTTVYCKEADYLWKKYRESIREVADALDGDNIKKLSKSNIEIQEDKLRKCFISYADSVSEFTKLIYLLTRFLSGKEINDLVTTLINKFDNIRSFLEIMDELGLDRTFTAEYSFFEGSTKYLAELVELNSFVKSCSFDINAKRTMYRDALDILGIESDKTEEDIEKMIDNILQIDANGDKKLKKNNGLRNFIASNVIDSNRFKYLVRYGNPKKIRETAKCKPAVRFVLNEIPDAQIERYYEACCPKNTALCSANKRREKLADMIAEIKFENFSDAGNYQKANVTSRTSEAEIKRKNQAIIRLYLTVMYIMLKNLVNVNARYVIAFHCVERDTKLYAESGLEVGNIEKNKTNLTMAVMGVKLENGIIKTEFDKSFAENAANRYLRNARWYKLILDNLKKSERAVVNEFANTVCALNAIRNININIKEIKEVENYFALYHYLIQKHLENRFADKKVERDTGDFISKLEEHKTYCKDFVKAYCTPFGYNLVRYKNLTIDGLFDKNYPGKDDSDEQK
Assay Text: crRNA (strand 1, pre-loaded); Mg2+; 40 mM Tris-HCl pH 7.5, 150 mM NaCl, 6 mM MgCl2, 1 mM DTT, 0.1% Tween-20, 0.2 mg/ml BSA; 25 C; 10 min per concentration, then washed
Test Context: tags: His6-TwinStrep-SUMO cleaved; N-terminal SNAP kept (SNAP-Surface 488); label: 3' end held by stalled T7 RNA polymerase
Remember the convention: pKd equals -log10 of concentration in molar.

Example cases with answers are listed next.
# Binder, pKd
rows = [
    ("target 1 insU 3' of 5,insC 3' of 5 (mixed) RNA 1: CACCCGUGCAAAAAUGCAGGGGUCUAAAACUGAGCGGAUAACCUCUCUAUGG RNA 2: GGGAAUGGAUCCACAUCUACGAAUUCGUACCAUAGAGAGGUUAUCCGUCCUCACCGAGAUCGGAAGAGCACACGU", 7.46),
    ("target 1 MT 5'PFS UAA 3'PFS CCU (mixed) RNA 1: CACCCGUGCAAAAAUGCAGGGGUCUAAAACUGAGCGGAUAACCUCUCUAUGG RNA 2: GGGAAUGGAUCCACAUCUACGAAUUCUAACCAUAGAGAGGUUAUCCGCUCACCUAGAUCGGAAGAGCACACGU", 7.66),
    ("target 1 insA 3' of 10,insG 3' of 10 (mixed) RNA 1: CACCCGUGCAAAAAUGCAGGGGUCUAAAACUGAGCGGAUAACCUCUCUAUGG RNA 2: GGGAAUGGAUCCACAUCUACGAAUUCGUACCAUAGAGAGGUUAGAUCCGCUCACCGAGAUCGGAAGAGCACACGU", 7.91),
    ("target 1 MT 5'PFS GCC 3'PFS CGG (mixed) RNA 1: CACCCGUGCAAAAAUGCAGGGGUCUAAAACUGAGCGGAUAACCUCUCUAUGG RNA 2: GGGAAUGGAUCCACAUCUACGAAUUCGCCCCAUAGAGAGGUUAUCCGCUCACGGAGAUCGGAAGAGCACACGU", 7.58),
    ("target 1 insU 3' of 22,insC 3' of 12 (mixed) RNA 1: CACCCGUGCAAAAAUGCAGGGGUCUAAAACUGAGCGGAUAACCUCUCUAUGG RNA 2: GGGAAUGGAUCCACAUCUACGAAUUCGUACUCAUAGAGAGGCUUAUCCGCUCACCGAGAUCGGAAGAGCACACGU", 7.04),
    ("target 1 C22U (mixed) RNA 1: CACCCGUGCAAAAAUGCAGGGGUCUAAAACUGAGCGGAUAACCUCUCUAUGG RNA 2: GGGAAUGGAUCCACAUCUACGAAUUCGUAUCAUAGAGAGGUUAUCCGCUCACCGAGAUCGGAAGAGCACACGU", 7.78),
    ("target 2 MT 5'PFS UAC 3'PFS UUG (mixed) RNA 1: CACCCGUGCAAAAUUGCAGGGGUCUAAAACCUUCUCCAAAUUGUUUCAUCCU RNA 2: GGGAAUGGAUCCACAUCUACGAAUUCUACAGGAUGAAACAAUUUGGAGAAGUUGAGAUCGGAAGAGCACACGU", 8.10),
    ("target 1 U3G,G5A (mixed) RNA 1: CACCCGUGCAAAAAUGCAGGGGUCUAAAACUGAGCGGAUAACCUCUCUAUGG RNA 2: GGGAAUGGAUCCACAUCUACGAAUUCGUACCAUAGAGAGGUUAUCCACGCACCGAGAUCGGAAGAGCACACGU", 7.37),
    ("target 1 insU 3' of 15,insA 3' of 15 (mixed) RNA 1: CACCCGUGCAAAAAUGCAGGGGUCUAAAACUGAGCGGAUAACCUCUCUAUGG RNA 2: GGGAAUGGAUCCACAUCUACGAAUUCGUACCAUAGAGUAAGGUUAUCCGCUCACCGAGAUCGGAAGAGCACACGU", 7.72),
    ("target 2 MT 5'PFS CUU 3'PFS AGA (mixed) RNA 1: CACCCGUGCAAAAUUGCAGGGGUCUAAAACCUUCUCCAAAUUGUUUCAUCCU RNA 2: GGGAAUGGAUCCACAUCUACGAAUUCCUUAGGAUGAAACAAUUUGGAGAAGAGAAGAUCGGAAGAGCACACGU", 8.54),
]

Look up pKd for this binder: target 1 insC 3' of 20,insC 3' of 9 (mixed) RNA 1: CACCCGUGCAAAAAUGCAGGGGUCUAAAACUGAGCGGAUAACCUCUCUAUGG RNA 2: GGGAAUGGAUCCACAUCUACGAAUUCGUACCACUAGAGAGGUUACUCCGCUCACCGAGAUCGGAAGAGCACACGU 8.05

Suppose we examine the binder target 1 C4U,G12U (mixed) RNA 1: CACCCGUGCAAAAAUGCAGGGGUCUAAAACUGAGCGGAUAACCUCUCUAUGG RNA 2: GGGAAUGGAUCCACAUCUACGAAUUCGUACCAUAGAGAGUUUAUCCGUUCACCGAGAUCGGAAGAGCACACGU ; what pKd value has been reported? 7.44

What value of measured pKd is listed for target 2 MT 5'PFS GCU 3'PFS AGA (mixed) RNA 1: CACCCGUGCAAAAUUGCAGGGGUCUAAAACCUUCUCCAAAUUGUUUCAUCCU RNA 2: GGGAAUGGAUCCACAUCUACGAAUUCGCUAGGAUGAAACAAUUUGGAGAAGAGAAGAUCGGAAGAGCACACGU ? 8.14

Dear colleague, I am looking for the recorded pKd of the following binder: target 1 insU 3' of 18,insC 3' of 9 (mixed) RNA 1: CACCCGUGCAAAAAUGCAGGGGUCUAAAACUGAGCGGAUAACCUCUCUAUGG RNA 2: GGGAAUGGAUCCACAUCUACGAAUUCGUACCAUAUGAGAGGUUACUCCGCUCACCGAGAUCGGAAGAGCACACGU 7.30
